Assay: NCI Yeast Anticancer Drug Screen. Data for the mlh1 rad18 strain (AID 175)
Settings: S. cerevisiae mlh1 rad18 strain growth inhibition; at 50.0 µM; active compounds read high
Compounds without any hit were thinned out: in the full panel of roughly 79,000, 15% have a hit.
Quantity measured: growth inhibition (%)
Unit % implied. Number only.

Consider the molecule CCCCCCCCNC(C(=O)c1ccccc1)c1ccccc1 (configuration not stated) and give its measured growth inhibition.
26.8

Query COc1cc2cccc(N=Cc3ccccc3Cl)c2cc1OC next
-3.8

Would you mind doing CCN(CC)CCOC(=O)c1ccc(N=Nc2cc(NC(C)=O)ccc2O)cc1 as well?
5.05

Next entry: Cc1cc(C=O)c(C)[nH]1
-4.4

* * *

Assay: NCI Yeast Anticancer Drug Screen. Data for the rad50 strain (AID 155);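 also: 0% = growth of vehicle-only cultures of the same strain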
Conditions: S. cerevisiae rad50 strain growth inhibition; at 50.0 µM; active compounds read high
Compounds without any hit were thinned out: in the full panel of roughly 79,000, 15% have a hit.
Quantity measured: growth inhibition (%)
Expressed in %, but write only the number.

Sample records with growth inhibition:
| Compound | growth inhibition (%) |
| --- | --- |
| O=c1ccc2ccc(-c3cnc(O)[nH]c3=O)oc-2c1 | 25.6 |
| Cc1c(C)c(C(Cl)(Cl)Cl)c(C)c(C)c1Br | -0.7 |
| CCC12OC3(CC)C4C(=O)OC1C1(CC)OC4(CC)C3C(=O)OC21 | -13.7 |

// returns reported growth inhibition for input CN1C(=O)C(=O)N2c3ccc(Cl)cc3C3(c4ccccc4)N=CC12O3 (stereo unspecified)
9.3

NC(N)=NC(=O)c1ccccc1 ?
-26.4

What about COc1cc(CC2c3cc(OC)c(OC)cc3CCN2C)ccc1O (stereo unspecified) ?
-22.3

* * *

Assay: NCI Yeast Anticancer Drug Screen. Data for the rad50 strain (AID 155);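 also: 0% = growth of vehicle-only cultures of the same strain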
Conditions: S. cerevisiae rad50 strain growth inhibition; at 50.0 µM; active compounds read high
The panel holds about 79,000 compounds, 15% with a hit somewhere; the sample as a whole holds those more often.
Quantity measured: growth inhibition (%)
The figure you give is taken to be in %; do not add the unit.

| Compound | Quantity measured | Measurement unit | Quantitative result |
| --- | --- | --- | --- |
| Nc1cc(C(F)(F)F)ccc1F | growth inhibition | % | 2.5 |
| O=C(O)C1C(c2ccccc2)CC(=O)N1c1ccc(Cl)cc1 (centres undefined) | growth inhibition | % | 1.55 |
| O=C(c1ccccc1)c1nc2ccc(Cl)cc2cc1C(Br)Br | growth inhibition | % | 17.9 |
| CCc1nnc(-c2nsc3ccccc23)s1 | growth inhibition | % | 38.5 |
| O=C(O)CC(SSCc1ccccc1)C(=O)O (centres undefined) | growth inhibition | % | 5.1 |

Value lookup for growth inhibition; key = CC(C)C1CC[C@H](C)C[C@@H]1OC(=O)C(C(=O)O[C@H]1C[C@@H](C)CCC1C(C)C)C(O)[C@@H]1OC(C)(C)O[C@H]1C1COC(C)(C)O1 (some centres undefined)
73.8

What do we get for NC(CCCCO)C(=O)O (centres undefined) ?
-6.8

* * *

Experiment: NCI Yeast Anticancer Drug Screen. Data for the cln2 rad14 strain (AID 165);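 also: 0% = growth equal to vehicle treated cultures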
Details: S. cerevisiae cln2 rad14 strain, at 50.0 µM, active compounds read high
The panel holds about 79,000 compounds, 15% with a hit somewhere; the sample as a whole holds those more often.
Quantity measured: growth inhibition (%)
State the answer as a number, implicitly in %.

| Molecule | Measurement unit | growth inhibition |
| --- | --- | --- |
| OCC1C2C=CC(O2)[C@H]1CO (some centres undefined) | % | -27.9 |
| CCN(CC)CCNc1ncnc2c1cnn2C | % | -4.5 |
| N#Cc1cnc(=S)n(-c2cc(C(F)(F)F)cc(C(F)(F)F)c2)c1N | % | 11.7 |
| COC1N(C2C=CC(CO)O2)C(=O)NC(=O)C1(C)Br (centres undefined) | % | 2.75 |
| O=C(O)CCC(C(=O)O)N(Cc1ccccc1)Cc1ccccc1 (centres undefined) | % | 1 |
| C1CCC2(CC1)CCCN2 | % | -3.5 |

Endpoint output: growth inhibition of O=C(Nc1cccc2c1C(=O)c1c(NC(=O)c3ccccc3)ccc(Nc3cccc4c3C(=O)c3ccccc3C4=O)c1C2=O)c1ccccc1 . Value?
10

What do we get for CCCCCCCCCC[C@@H](OC(C)=O)[C@@H]1CC[C@@H]([C@@H]2CC[C@@H]([C@@H](O)CC#C/C=C/CCCCCCC[C@@]3(Sc4ccccc4)C[C@H](C)OC3=O)O2)O1 ?
4.25

Entry C=CCCCCCCCCC(=O)NCc1ccncc1 please
50.4
